- TARGET OR TEST SYSTEM: MAPKAPK2 (Homo sapiens)
- Sequence (P49137 whole entry): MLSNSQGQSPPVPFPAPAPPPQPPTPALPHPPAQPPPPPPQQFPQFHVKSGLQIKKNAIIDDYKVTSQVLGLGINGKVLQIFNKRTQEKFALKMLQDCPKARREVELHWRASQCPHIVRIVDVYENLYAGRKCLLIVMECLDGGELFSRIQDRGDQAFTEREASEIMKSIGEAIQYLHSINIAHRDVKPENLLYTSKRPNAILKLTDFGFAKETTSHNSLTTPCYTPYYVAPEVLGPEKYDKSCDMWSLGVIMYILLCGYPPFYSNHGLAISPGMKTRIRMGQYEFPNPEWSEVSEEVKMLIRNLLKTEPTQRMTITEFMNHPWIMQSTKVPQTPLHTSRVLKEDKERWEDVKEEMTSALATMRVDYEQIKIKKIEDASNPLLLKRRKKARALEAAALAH
RECORDED ENDPOINT: IC50

// compound C[C@H]1CN(c2c(NC(=O)c3ccc(F)c(-c4c(F)cccc4F)n3)cnc3c2CC[C@H]3O)C[C@@H](N)[C@@H]1O.O=P(O)(O)O [INCB053914] , assay MAPKAPK2 (Homo sapiens), IC50 value: > 20 µM

====

- TARGET OR TEST SYSTEM: MINK (Homo sapiens)
- Sequence (Q8N4C8 whole entry): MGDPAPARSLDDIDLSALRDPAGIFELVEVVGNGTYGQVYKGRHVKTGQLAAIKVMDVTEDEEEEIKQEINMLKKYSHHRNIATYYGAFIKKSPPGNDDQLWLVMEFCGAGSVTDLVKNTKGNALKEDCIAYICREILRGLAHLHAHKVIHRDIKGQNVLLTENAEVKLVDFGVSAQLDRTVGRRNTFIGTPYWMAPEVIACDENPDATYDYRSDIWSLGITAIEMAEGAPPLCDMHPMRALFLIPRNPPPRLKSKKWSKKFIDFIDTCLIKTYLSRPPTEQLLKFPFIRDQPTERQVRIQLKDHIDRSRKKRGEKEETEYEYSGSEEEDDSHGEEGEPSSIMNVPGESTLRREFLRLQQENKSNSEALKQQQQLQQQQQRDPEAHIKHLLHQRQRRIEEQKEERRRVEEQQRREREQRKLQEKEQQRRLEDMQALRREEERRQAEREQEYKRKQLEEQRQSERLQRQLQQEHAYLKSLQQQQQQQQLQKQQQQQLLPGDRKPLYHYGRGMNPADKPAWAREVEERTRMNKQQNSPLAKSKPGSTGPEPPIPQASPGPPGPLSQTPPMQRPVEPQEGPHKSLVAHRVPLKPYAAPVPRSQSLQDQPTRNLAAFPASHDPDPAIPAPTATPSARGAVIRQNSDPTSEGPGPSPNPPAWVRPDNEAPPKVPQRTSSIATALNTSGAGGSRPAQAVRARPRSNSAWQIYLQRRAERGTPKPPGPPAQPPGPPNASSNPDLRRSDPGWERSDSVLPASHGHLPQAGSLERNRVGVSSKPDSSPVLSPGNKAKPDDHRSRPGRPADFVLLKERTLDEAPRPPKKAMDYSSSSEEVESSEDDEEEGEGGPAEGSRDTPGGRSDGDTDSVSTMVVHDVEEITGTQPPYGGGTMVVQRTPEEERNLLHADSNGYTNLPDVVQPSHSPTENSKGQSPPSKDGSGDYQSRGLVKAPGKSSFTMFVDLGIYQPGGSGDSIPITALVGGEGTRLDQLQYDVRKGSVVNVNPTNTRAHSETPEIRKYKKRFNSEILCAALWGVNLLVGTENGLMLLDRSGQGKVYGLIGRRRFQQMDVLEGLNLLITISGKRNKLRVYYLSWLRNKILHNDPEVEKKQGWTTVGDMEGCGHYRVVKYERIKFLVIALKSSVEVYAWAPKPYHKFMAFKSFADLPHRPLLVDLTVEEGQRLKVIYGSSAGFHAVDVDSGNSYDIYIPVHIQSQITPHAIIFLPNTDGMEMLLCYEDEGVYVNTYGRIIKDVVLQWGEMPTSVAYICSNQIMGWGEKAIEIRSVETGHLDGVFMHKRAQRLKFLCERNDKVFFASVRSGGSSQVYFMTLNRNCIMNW
- TEST SUMMARY: Kinase selectivity panel
- Format: biochemical
- CONDITIONS: [ATP] = 1 mM
pIC50: −log10 of the molar value.
RECORDED ENDPOINT: pIC50

Entry under test: C[C@H]1CN(c2c(NC(=O)c3ccc(F)c(-c4c(F)cccc4F)n3)cnc3c2CC[C@H]3O)C[C@@H](N)[C@@H]1O.O=P(O)(O)O . Its pIC50 was < 4.70
